# Protocol summary: A CellTox Green Cytotoxicity Assay to monitor cytotoxicity in HepG2 cells - 16 hour (AID 1224876); further: nearly all actives have a fitted effect of over 45% in size
# Measurement context: CellTox Green fluorescence; series mostly up to 76.8 µM
# Source text: National Center for Advancing Translational Sciences [NCATS] NIH Chemical Genomics Center [NCGC] U.S. Environmental Protection Agency [EPA] National Institutes of Environmental Health Sciences [NIEHS] National Toxicology Program [NTP] Cell-based models are critical for drug discovery. […] Viable cells produce no appreciable increases in fluorescence. Therefore, the fluorescence signal produced by the binding interaction with dead cell DNA is proportional to cytotoxicity. […]
Records with an inconclusive call do not appear. Calls of active or inactive are those of the source. The call rests on the fitted dose curve; in most records, active means well fitted activation curve with a large enough effect in the repeat runs; inconclusive means weak or mixed curves; inactive means flat fitted curve, though single readings scatter.
Readout type: cytotoxicity increase

These solved cases illustrate the format of a correct answer.
[[record]]
compound = "O=C(Cl)c1cccc([N+](=O)[O-])c1"
assay_value = "inactive"

[[record]]
compound = "C[C@]12C(=O)OC(=O)[C@H]1[C@H]1C=C[C@@H]2C1"
assay_value = "inactive"

[[record]]
compound = "COc1ccccc1N1CCN(CCCNc2cc(=O)n(C)c(=O)n2C)CC1"
assay_value = "inactive"

[[record]]
compound = "CO[C@@]1(NC(=O)CSCC#N)C(=O)N2C(C(=O)O)=C(CSc3nnnn3C)CS[C@@H]21"
assay_value = "inactive"


I'm hoping you can list cytotoxicity increase for every compound here, please.
1. CCCNC(C)C(=O)Nc1c(C)csc1C(=O)OC (stereo unspecified)
2. CC(C)OC(C)C

Data returned:
1. inactive
2. inactive

* * *

# System under test: Cytochrome P450 2C19 (Homo sapiens)
# Protocol summary: Cytochrome P450 Family 2 Subfamily C Member 19 (CYP2C19) small molecule antagonists: luciferase reporter qHTS assay (AID 1671197); further: nearly all actives have a fitted effect of over 65% in size
# Measurement context: P450-Glo CYP2C19 enzyme, luciferin luminescence, 1 h; series mostly up to 115 µM
Results filed as inconclusive are left out. Active and inactive are the calls of the source. The call rests on the fitted dose curve; in most records, active means well fitted inhibition curve with a large enough effect in the repeat runs; inconclusive means weak or mixed curves; inactive means no such curve, though single readings can be large or run the other way.
Choose one outcome from this list and give only that: Y for active, N for inactive

Solved cases below.
[[record]]
molecule = "C=CC1CO1 (stereo not drawn)"
system_under_test = "Cytochrome P450 2C19 (Homo sapiens)"
category = "N"

[[record]]
molecule = "CC1=CC(=O)CC(C)(C)C1=O"
system_under_test = "Cytochrome P450 2C19 (Homo sapiens)"
category = "N"

[[record]]
molecule = "CCCCCOc1ccc(C2SC(=O)NC2=O)cc1OCC (stereo not drawn)"
system_under_test = "Cytochrome P450 2C19 (Homo sapiens)"
category = "N"

[[record]]
molecule = "CCCCNc1ccc(C(=O)OCCN(CC)CC)cc1"
system_under_test = "Cytochrome P450 2C19 (Homo sapiens)"
category = "N"

[[record]]
molecule = "COC(C)CCO (stereo not drawn)"
system_under_test = "Cytochrome P450 2C19 (Homo sapiens)"
category = "N"


Data request: Hi, do you know how `CCCCCCCCOC(=O)CCCCCCCCC(=O)OCCCCCCCC` came out in this test?
Data returned: N

Data request: Please let me know the test result on file for CCN1CC(CCN2CCOCC2)C(c2ccccc2)(c2ccccc2)C1=O (stereo not drawn) .
Data returned: N

Data request: Outcome? CCCNC(C)C(=O)Nc1c(C)csc1C(=O)OC (stereo not drawn)
Data returned: N

Data request: Tell me the assay call for CC(C)C(=O)OCC(C)(C)C(O)C(C)C (stereo not drawn) please.
Data returned: N

Data request: For `Cc1nnc(SCC2=C(C(=O)O)N3C(=O)[C@@H](NC(=O)Cn4cnnn4)[C@H]3SC2)s1` , which call appears in the assay record?
Data returned: N

Data request: Recorded test call requested for `CN1CCN(C2=Nc3ccccc3Oc3ccc(Cl)cc32)CC1`
Data returned: Y

Data request: Hi, sorry to bother you, what did the test record for `Cc1ccc([N+](=O)[O-])c(N)c1` ?
Data returned: Y

Data request: # fetch the recorded call for `O=S(=O)(O)C(F)(F)F` here
Data returned: N
